Assign Kp at 1 h to each entry below.
- Assay Name: Ratio of drug level in homogenized brain to plasma in Han-Wistar rat measured 1 hr after iv bolus then iv infusion by LC-MS/MS method
- Assay type: ADME, organism-based
- Test Context: read-out: BPR

**Query** Provide measured Kp at 1 h value, entry: C#Cc1ccc(Cl)c(C(=O)NC(=O)Nc2nc3ccc(S(=O)(=O)CCCN4CCN(C)CC4)cc3s2)c1
**Result** < 0.03

**Query** Provide measured Kp at 1 h value, entry: CN1CCN(CCCS(=O)(=O)c2ccc3nc(NC(=O)NC(=O)c4cc(N5CCOCC5)ccc4Cl)sc3c2)CC1
**Result** < 0.03

**Query** Provide measured Kp at 1 h value, entry: CCN(CC)CCCS(=O)(=O)c1ccc2nc(NC(=O)NC(=O)c3cc(N4CCOCC4)ccc3Cl)sc2c1
**Result** < 0.01

**Query** Provide measured Kp at 1 h value, entry: CN1CCN(CCCS(=O)(=O)c2ccc3nc(NC(=O)NC(=O)c4cc(-n5cccn5)ccc4Cl)sc3c2)CC1
**Result** < 0.03

**Query** Provide measured Kp at 1 h value, entry: CN1CCN(CCCS(=O)(=O)c2ccc3nc(NC(=O)NC(=O)c4cc(N5CCCC5)ccc4Cl)sc3c2)CC1
**Result** < 0.03
